Tested on: 156681-154-R-J1 tumor spheroid viability
Protocol Text: Anticancer human tumor 156681-154-R-J1 patient-derived melanoma cell line growth inhibition
Test Parameters: second compound 30 pM; first compound 0.1 µM; active compounds read low; spheroids with HUVEC and MSC
The entries below are paired with their reported viability, T/C.
Please give a number only; it is taken to be in %.

| Compound | Value Units | viability, T/C |
| --- | --- | --- |
| COc1cc(C)[nH]c(=O)c1CN1CCc2c(Cl)cc(C(OC)C3COC3)c(Cl)c2C1=O (stereo unspecified) + COc1cc2c(cc1O)CCNC21CSC2c3c(OC(C)=O)c(C)c4c(c3C(COC1=O)N1C(O)C3Cc5cc(C)c(OC)c(O)c5C(C21)N3C)OCO4 | % | 112 |
| [2H]c1nc(C)nc([2H])c1-c1cc(NC[C@@H](C)c2cccc3c(C(=O)NC)ccnc23)ncn1 + COc1cc2c(cc1O)CCNC21CSC2c3c(OC(C)=O)c(C)c4c(c3C(COC1=O)N1C(O)C3Cc5cc(C)c(OC)c(O)c5C(C21)N3C)OCO4 | % | 96 |
| CC(C)n1c(=O)n(C)c2cnc3cc(F)c(-c4ccc(OCCCN5CCCCC5)nc4)cc3c21 + COc1cc2c(cc1O)CCNC21CSC2c3c(OC(C)=O)c(C)c4c(c3C(COC1=O)N1C(O)C3Cc5cc(C)c(OC)c(O)c5C(C21)N3C)OCO4 | % | 120 |
| Cc1cc(C)c(CNC(=O)c2cc(-c3ccc(CN4CCOCC4)cc3)cc3c2cnn3C2CCCC2)c(=O)[nH]1 + COc1cc2c(cc1O)CCNC21CSC2c3c(OC(C)=O)c(C)c4c(c3C(COC1=O)N1C(O)C3Cc5cc(C)c(OC)c(O)c5C(C21)N3C)OCO4 | % | 106 |
| CC1COCCN1c1cc(-c2ccnn2C)c2ccnc(-c3ccn[nH]3)c2n1 (stereo unspecified) + COc1cc2c(cc1O)CCNC21CSC2c3c(OC(C)=O)c(C)c4c(c3C(COC1=O)N1C(O)C3Cc5cc(C)c(OC)c(O)c5C(C21)N3C)OCO4 | % | 62.2 |

Note: attention shifts to another entry.
Input COc1ccc([C@@H](O)c2cc(-c3ncnc4cc(N5CCOCC5)ccc34)c(F)cc2Cl)nn1 + COc1cc2c(cc1O)CCNC21CSC2c3c(OC(C)=O)c(C)c4c(c3C(COC1=O)N1C(O)C3Cc5cc(C)c(OC)c(O)c5C(C21)N3C)OCO4 . Output viability, T/C: 107

* * *

The entries below are paired with their reported viability, T/C.
Tested on: 156681-154-R-J1 tumor spheroid viability
Protocol Text: Anticancer human tumor 156681-154-R-J1 cell line growth inhibition;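 also: spheroids exposed to compounds for 7 days before readout; percent of vehicle control viability where 100% = DMSO-treated spheroids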
Test Parameters: second compound 3.16 µM; first compound 10 µM; active compounds read low; spheroids with HUVEC and MSC
Please give a number only; it is taken to be in %.

The cases that follow already have their viability, T/C on record.
| Compound | Value Units | viability, T/C |
| --- | --- | --- |
| Cc1cc(C)c(CNC(=O)c2cc(-c3ccc(CN4CCOCC4)cc3)cc3c2cnn3C2CCCC2)c(=O)[nH]1 + Cn1nnc2c(C(N)=O)ncn2c1=O | % | 84.4 |
| COc1cc(C)[nH]c(=O)c1CN1CCc2c(Cl)cc(C(OC)C3COC3)c(Cl)c2C1=O (stereo unspecified) + Cn1nnc2c(C(N)=O)ncn2c1=O | % | 130 |
| CC(C)n1c(=O)n(C)c2cnc3cc(F)c(-c4ccc(OCCCN5CCCCC5)nc4)cc3c21 + Cn1nnc2c(C(N)=O)ncn2c1=O | % | 71.4 |
| CC1COCCN1c1cc(-c2ccnn2C)c2ccnc(-c3ccn[nH]3)c2n1 (stereo unspecified) + Cn1nnc2c(C(N)=O)ncn2c1=O | % | 18 |
| [2H]c1nc(C)nc([2H])c1-c1cc(NC[C@@H](C)c2cccc3c(C(=O)NC)ccnc23)ncn1 + Cn1nnc2c(C(N)=O)ncn2c1=O | % | 87.4 |

Note: attention shifts to another entry.
Value (viability, T/C, 156681-154-R-J1 tumor spheroid viability) for record COc1ccc([C@@H](O)c2cc(-c3ncnc4cc(N5CCOCC5)ccc34)c(F)cc2Cl)nn1 + Cn1nnc2c(C(N)=O)ncn2c1=O = 54.8

* * *

Test system: 156681-154-R-J1 tumor spheroid viability
Protocol Text: Anticancer human tumor 156681-154-R-J1 cell line growth inhibition;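 also: spheroids exposed to compounds for 7 days before readout; percent of vehicle control viability where 100% = DMSO-treated spheroids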
Test Parameters: second compound 94.9 pM; first compound 0.0949 µM; active compounds read low; spheroids with HUVEC and MSC
Property Label: viability, T/C (%)
Please give a number only; it is taken to be in %.

| Molecule | Experimental Value |
| --- | --- |
| Cc1sc2c(c1C)C(c1ccc(Cl)cc1)=NC(CC(=O)Nc1ccc(O)cc1)c1nnc(C)n1-2 (centres undefined) + COc1cc2c(cc1O)CCNC21CSC2c3c(OC(C)=O)c(C)c4c(c3C(COC1=O)N1C(O)C3Cc5cc(C)c(OC)c(O)c5C(C21)N3C)OCO4 | 95.8 |
| Cn1ncnc1[C@H]1c2n[nH]c(=O)c3cc(F)cc(c23)N[C@@H]1c1ccc(F)cc1 + COc1cc2c(cc1O)CCNC21CSC2c3c(OC(C)=O)c(C)c4c(c3C(COC1=O)N1C(O)C3Cc5cc(C)c(OC)c(O)c5C(C21)N3C)OCO4 | 91.9 |
| O=C(c1cc(Cc2n[nH]c(=O)c3ccccc23)ccc1F)N1CCN(C(=O)C2CC2)CC1 + COc1cc2c(cc1O)CCNC21CSC2c3c(OC(C)=O)c(C)c4c(c3C(COC1=O)N1C(O)C3Cc5cc(C)c(OC)c(O)c5C(C21)N3C)OCO4 | 82.1 |

Note: attention shifts to another entry.
Input CNCc1ccc(-c2cc(-c3nc(-c4ccc(S(=O)(=O)C(C)C)cc4)cnc3N)on2)cc1 + COc1cc2c(cc1O)CCNC21CSC2c3c(OC(C)=O)c(C)c4c(c3C(COC1=O)N1C(O)C3Cc5cc(C)c(OC)c(O)c5C(C21)N3C)OCO4 . Output viability, T/C: 101

* * *

Tested on: 156681-154-R-J1 tumor spheroid viability
Protocol Text: Anticancer human tumor 156681-154-R-J1 cell line growth inhibition; active = viability on the fitted dose curve at most 10% of control; inactive = the rest;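 also: spheroids exposed to compounds for 7 days before readout; percent of vehicle control viability where 100% = DMSO-treated spheroids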
Test Parameters: second compound 31.6 µM; first compound 3 µM; spheroids with HUVEC and MSC
# valid calls are yes = active, no = inactive; nothing else

| Compound | Class |
| --- | --- |
| O=C(c1cc(Cc2n[nH]c(=O)c3ccccc23)ccc1F)N1CCN(C(=O)C2CC2)CC1 + Cn1nnc2c(C(N)=O)ncn2c1=O | no |
| Cn1ncnc1[C@H]1c2n[nH]c(=O)c3cc(F)cc(c23)N[C@@H]1c1ccc(F)cc1 + Cn1nnc2c(C(N)=O)ncn2c1=O | no |
| CNCc1ccc(-c2cc(-c3nc(-c4ccc(S(=O)(=O)C(C)C)cc4)cnc3N)on2)cc1 + Cn1nnc2c(C(N)=O)ncn2c1=O | yes |

Status in this test for Cc1sc2c(c1C)C(c1ccc(Cl)cc1)=NC(CC(=O)Nc1ccc(O)cc1)c1nnc(C)n1-2 (centres undefined) + Cn1nnc2c(C(N)=O)ncn2c1=O ?
no

* * *

System: 156681-154-R-J1 tumor spheroid viability
Protocol Text: Anticancer human tumor 156681-154-R-J1 cell line growth inhibition;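 also: spheroids exposed to compounds for 7 days before readout; percent of vehicle control viability where 100% = DMSO-treated spheroids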
Test Parameters: second compound 94.9 pM; first compound 10 µM; active compounds read low; spheroids with HUVEC and MSC
Property Label: viability, T/C

Input Cc1cc(C)c(CNC(=O)c2cc(-c3ccc(CN4CCOCC4)cc3)cc3c2cnn3C2CCCC2)c(=O)[nH]1 + COc1cc2c(cc1O)CCNC21CSC2c3c(OC(C)=O)c(C)c4c(c3C(COC1=O)N1C(O)C3Cc5cc(C)c(OC)c(O)c5C(C21)N3C)OCO4 . Output viability, T/C: 78.8%

Input COc1ccc([C@@H](O)c2cc(-c3ncnc4cc(N5CCOCC5)ccc34)c(F)cc2Cl)nn1 + COc1cc2c(cc1O)CCNC21CSC2c3c(OC(C)=O)c(C)c4c(c3C(COC1=O)N1C(O)C3Cc5cc(C)c(OC)c(O)c5C(C21)N3C)OCO4 . Output viability, T/C: 41.5%

Input CC(C)n1c(=O)n(C)c2cnc3cc(F)c(-c4ccc(OCCCN5CCCCC5)nc4)cc3c21 + COc1cc2c(cc1O)CCNC21CSC2c3c(OC(C)=O)c(C)c4c(c3C(COC1=O)N1C(O)C3Cc5cc(C)c(OC)c(O)c5C(C21)N3C)OCO4 . Output viability, T/C: 73.5%

Input [2H]c1nc(C)nc([2H])c1-c1cc(NC[C@@H](C)c2cccc3c(C(=O)NC)ccnc23)ncn1 + COc1cc2c(cc1O)CCNC21CSC2c3c(OC(C)=O)c(C)c4c(c3C(COC1=O)N1C(O)C3Cc5cc(C)c(OC)c(O)c5C(C21)N3C)OCO4 . Output viability, T/C: 76.8%
